Answer each item with its documented probe binding, % of diluent control.
assay target: T1, human ceruloplasmin (human, UniProt P00450 20-1065)
T1 construct: also called CP; purified CP
T1 sequence: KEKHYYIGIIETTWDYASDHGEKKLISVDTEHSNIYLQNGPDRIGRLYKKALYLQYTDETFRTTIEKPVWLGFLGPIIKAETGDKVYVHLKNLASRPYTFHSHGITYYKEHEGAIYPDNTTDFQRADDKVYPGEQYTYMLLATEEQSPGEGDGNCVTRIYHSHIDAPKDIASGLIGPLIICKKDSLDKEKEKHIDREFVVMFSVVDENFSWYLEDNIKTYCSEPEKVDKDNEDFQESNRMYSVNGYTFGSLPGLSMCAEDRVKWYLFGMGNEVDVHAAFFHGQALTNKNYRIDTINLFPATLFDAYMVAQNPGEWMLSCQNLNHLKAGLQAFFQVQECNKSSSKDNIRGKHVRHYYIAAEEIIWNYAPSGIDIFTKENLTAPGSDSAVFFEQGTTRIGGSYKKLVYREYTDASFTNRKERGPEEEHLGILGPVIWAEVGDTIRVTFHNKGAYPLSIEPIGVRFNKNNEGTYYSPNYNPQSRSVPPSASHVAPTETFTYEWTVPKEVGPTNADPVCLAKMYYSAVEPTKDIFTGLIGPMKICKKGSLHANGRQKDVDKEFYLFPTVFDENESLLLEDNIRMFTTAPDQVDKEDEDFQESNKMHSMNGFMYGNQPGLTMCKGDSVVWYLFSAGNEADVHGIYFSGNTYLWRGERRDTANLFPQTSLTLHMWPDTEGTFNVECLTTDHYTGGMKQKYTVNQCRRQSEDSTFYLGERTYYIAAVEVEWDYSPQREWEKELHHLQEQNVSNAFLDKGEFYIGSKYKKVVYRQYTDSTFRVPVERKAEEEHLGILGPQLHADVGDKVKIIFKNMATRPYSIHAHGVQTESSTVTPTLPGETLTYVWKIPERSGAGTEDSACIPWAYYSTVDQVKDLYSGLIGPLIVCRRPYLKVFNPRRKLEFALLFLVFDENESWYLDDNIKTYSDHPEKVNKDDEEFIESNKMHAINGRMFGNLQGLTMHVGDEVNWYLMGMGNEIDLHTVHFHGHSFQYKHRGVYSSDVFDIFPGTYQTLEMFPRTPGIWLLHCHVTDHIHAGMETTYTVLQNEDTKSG
protocol notes: competition ELISA on coated CP, biotinylated probe; competitor: mAb A
Method: To assess whether any of the 8 anti-CP antibodies competed with each other for binding to CP, the following ELISA study was performed. Briefly, CP was coated onto plates at 0.4 ug/mL overnight. […] Plates were then incubated with TMB substrate for either 30 minutes or 15 minutes, as noted below, and the reaction was stopped by adding 0.18 M sulfuric acid and read at A450. […]
Could you give me the number in %? Just the number is fine.

(Q) Using the record for anti-CP mAb C (antibody, V domains shown, Recombinant full-length rabbit IgG from HEK-293; also called mAb2) VH: QSVEESGGRLVTPGTPLTLTCTASGFSLSRYYMSWVRQAPGKGLEWIGMIYPSSGSTWYASWVKGRFTISATATSVDLKITSPTTEDTATYFCVRDRYPGYNGDSFNLWGQGTLVTVSS VL: AQVLTQTASPVSAAVGSTVTINCQASQSVYNNNYLAWFQQKPGQPPKRLIYQASKLAIGVPSRFSGSGSGTQFTLTISDVQCDDAATYYCLGSYGCNSVDCNVFGGGTEVVVKG , report its probe binding, % of diluent control.
(A) 100

(Q) And then anti-CP mAb D (antibody, V domains shown, Recombinant full-length rabbit IgG from HEK-293; tested as conditioned medium, Protein A-purified and biotinylated) VH: QEQLVESGGGLVQPEGSLTLTCKASGFDFSSYWMCWVRQAPGKRPEWIACIYGGDGTSYFAGWAKGRFTISKTSSTTVTLQMTSLTAADTATYFCARADYYVYVDGGYGHAYDLWGPGTLVTVSS VL: DIVMTQTPASVEAAVGGSVTIKCQASDDIYSYLAWYQQKPGQPPKLLIFDASSLPSGVPSRFKGSGSGTQFTLTISGVQCADAATYYCQNYYGSSSSVHAFGGGTEVVVKG , what is it?
(A) 107
